Tested on: Xanthine dehydrogenase/oxidase (Homo sapiens)
Sequence (P47989 whole entry): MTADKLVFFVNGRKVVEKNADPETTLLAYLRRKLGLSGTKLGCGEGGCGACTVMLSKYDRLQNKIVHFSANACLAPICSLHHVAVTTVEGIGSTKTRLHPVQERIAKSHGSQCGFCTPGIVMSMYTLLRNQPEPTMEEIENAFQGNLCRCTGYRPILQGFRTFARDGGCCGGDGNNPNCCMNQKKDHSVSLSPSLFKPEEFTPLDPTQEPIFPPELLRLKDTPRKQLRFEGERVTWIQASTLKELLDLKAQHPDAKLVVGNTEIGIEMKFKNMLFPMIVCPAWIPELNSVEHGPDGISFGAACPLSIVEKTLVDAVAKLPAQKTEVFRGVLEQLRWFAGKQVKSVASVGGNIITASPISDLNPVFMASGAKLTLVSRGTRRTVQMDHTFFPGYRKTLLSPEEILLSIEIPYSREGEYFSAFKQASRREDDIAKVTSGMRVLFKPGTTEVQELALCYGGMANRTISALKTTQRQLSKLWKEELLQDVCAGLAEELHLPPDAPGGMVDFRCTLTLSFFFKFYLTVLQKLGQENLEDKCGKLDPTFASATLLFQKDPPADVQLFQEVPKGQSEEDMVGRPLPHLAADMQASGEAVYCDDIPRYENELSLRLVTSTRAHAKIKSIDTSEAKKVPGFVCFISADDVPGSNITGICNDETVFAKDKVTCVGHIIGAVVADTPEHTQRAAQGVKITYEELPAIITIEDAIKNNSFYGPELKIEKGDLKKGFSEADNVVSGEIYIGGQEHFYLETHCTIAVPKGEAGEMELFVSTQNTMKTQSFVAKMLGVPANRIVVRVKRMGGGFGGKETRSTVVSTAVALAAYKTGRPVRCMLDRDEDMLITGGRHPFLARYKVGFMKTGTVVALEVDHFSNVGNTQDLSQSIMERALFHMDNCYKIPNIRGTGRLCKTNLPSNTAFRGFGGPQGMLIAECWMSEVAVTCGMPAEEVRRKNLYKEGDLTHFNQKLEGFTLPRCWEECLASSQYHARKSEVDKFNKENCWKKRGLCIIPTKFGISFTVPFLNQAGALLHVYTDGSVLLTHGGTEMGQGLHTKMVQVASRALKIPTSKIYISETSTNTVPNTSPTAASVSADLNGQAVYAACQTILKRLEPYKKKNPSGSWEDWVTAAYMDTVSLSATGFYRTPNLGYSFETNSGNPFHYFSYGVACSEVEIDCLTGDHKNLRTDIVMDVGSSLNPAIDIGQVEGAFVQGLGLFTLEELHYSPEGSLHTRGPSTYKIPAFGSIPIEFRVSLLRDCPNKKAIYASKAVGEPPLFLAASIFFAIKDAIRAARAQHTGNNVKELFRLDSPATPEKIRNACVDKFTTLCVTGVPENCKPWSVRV
Measurement label: pIC50
Scale explanation: pIC50 corresponds to minus log10 of a concentration expressed in moles per litre.

Here is how some molecules turned out for pIC50.
O=c1cc(O)c2ccccc2o1 [4-HYDROXYCOUMARINS] ... 3.71
O=c1ccc2ccc(O)cc2o1 ... 3.63

--- query ---
Param request: pIC50 | system Xanthine dehydrogenase/oxidase (Homo sapiens) | item O=c1oc2ccccc2cc1O [3-HYDROXYCOUMARIN]
3.88
